- System: 156681-154-R-J1 tumor spheroid viability;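 further: spheroids exposed to compounds for 7 days before readout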
- Assay summary: Anticancer human tumor 156681-154-R-J1 patient-derived melanoma cell line growth inhibition
- Condition context: curve of first compound; second compound 0.000949 µM; spheroids with HUVEC and MSC
The following compounds are shown together with reported IC50 values.

>>> recorded_value("Cc1cc(C)c(CNC(=O)c2cc(-c3ccc(CN4CCOCC4)cc3)cc3c2cnn3C2CCCC2)c(=O)[nH]1 + COc1cc2c(cc1O)CCNC21CSC2c3c(OC(C)=O)c(C)c4c(c3C(COC1=O)N1C(O)C3Cc5cc(C)c(OC)c(O)c5C(C21)N3C)OCO4")
"< 31.6 nM"

Entry CC1COCCN1c1cc(-c2ccnn2C)c2ccnc(-c3ccn[nH]3)c2n1 (configuration not stated) + COc1cc2c(cc1O)CCNC21CSC2c3c(OC(C)=O)c(C)c4c(c3C(COC1=O)N1C(O)C3Cc5cc(C)c(OC)c(O)c5C(C21)N3C)OCO4 : reported IC50 = ?
< 31.6 nM
